target: Cytochrome P450 1A2 (Homo sapiens); assay: p450-cyp1a2 (AID 410); conditions: recombinant CYP1A2, luciferin-ME demethylation, luminescence; series mostly up to 57 µM; also: potency is read from the fitted curve at half-maximal effect
Results filed as inconclusive are left out. Calls of active or inactive are those of the source. Calls follow the shape of the full dose curve.
measure: Potency

>>> df
                                 chem_smiles  observed_measurement
 0  CCNc1ncc2nc(-c3cn(C)c4ccccc34)c(=O)n(Cc3cccs3)c2n1      6.31 µM (active)
 1  c1nc(NCCN2CCOCC2)c2cc(-c3ccc4c(c3)OCO4)ccc2n1      2.51 µM (active)
 2       COc1cc(/C=C\c2ccc(OC)cc2OC)cc(OC)c1     0.794 µM (active)
 3  COc1cccc(Cn2c(=O)c(-c3ccccc3)nc3cnc(N4CCN(C)CC4)nc32)c1              inactive
 4  COc1ccc(C(=O)N2CCC3(CC2)CCN(C(c2ccccc2)c2ccccc2)CC3)cc1              inactive
 5  COc1ccc(CNc2ccnc(-c3ccc(C(=O)N(C)C)cc3)n2)c(OC)c1      12.6 µM (active)
 6  Cc1nc2cnc(Oc3cccc(Cl)c3)nc2n(CCc2ccccc2)c1=O      12.6 µM (active)
 7  COc1ccccc1CNc1ncncc1-c1ccc(C(=O)N(C)C)cc1      12.6 µM (active)
 8        N[C@@H](C(=O)O)c1ccc(O)c(C(=O)O)c1              inactive
 9              c1ccc(CNc2ncncc2-c2ccoc2)cc1      5.01 µM (active)
10       CS(=O)(=O)N1CCC2(CC1)CN(c1ncccn1)C2              inactive
11         COc1cccc(-c2nccc(NCc3cccnc3)n2)c1     0.158 µM (active)
12  Cc1cccc(CNc2cc(-c3cccc(NS(C)(=O)=O)c3)ncn2)c1        10 µM (active)
13  O=C(c1cccc(F)c1)N1CCC2(CCCN(C(c3ccccc3)c3ccccc3)C2)CC1      6.31 µM (active)
14     Cc1cnc(CNc2ncncc2-c2ccc3c(c2)OCO3)cn1         2 µM (active)
15  O=C(Nc1cccc(F)c1)N1CC2(CCN(C(=O)c3cnccn3)CC2)C1              inactive
16  O=S(=O)(c1ccccc1)N1CCC2(CCCN(Cc3nccs3)C2)CC1              inactive
17  CN(C)c1ncc2nc(-c3cc(F)cc(F)c3)c(=O)n(CCc3ccccc3)c2n1              inactive
18  COCCn1c(=O)c(-c2cccs2)nc2cnc(N3CCN(C)CC3)nc21      15.8 µM (active)
19  COc1ccc(Oc2ncc3nc(-c4cc(F)cc(F)c4)c(=O)n(C)c3n2)cc1      3.16 µM (active)
20   COCCn1c(=O)c(-c2cc(F)cc(F)c2)nc2cncnc21         2 µM (active)
21            CNc1nc(-c2c(C)noc2C)nc2ccccc12    0.0501 µM (active)
22     c1nc(NCCN2CCOCC2)c2cc(-c3ccoc3)ccc2n1      12.6 µM (active)
23  CN1CCN(c2ncc3nc(-c4cn(C)c5ccccc45)c(=O)n(-c4ccccc4)c3n2)CC1      15.8 µM (active)
24       O=c1c(-c2ccc(F)cc2)nc2cncnc2n1C1CC1     0.158 µM (active)
25      CN(Cc1ccco1)c1nc(-c2ccoc2)nc2ccccc12     0.398 µM (active)
26  CN1CCN(c2ncc3nc(-c4cn(C)c5ccccc45)c(=O)n(C)c3n2)CC1      31.6 µM (active)
27  CS(=O)(=O)N1CCC2(CCCN(C(c3ccccc3)c3ccccc3)C2)CC1              inactive
